# SYSTEM_TESTED: human mineralocorticoid receptor (MR) (Homo sapiens, UniProt P08235)
# Sequence (P08235 734-984 limits assumed): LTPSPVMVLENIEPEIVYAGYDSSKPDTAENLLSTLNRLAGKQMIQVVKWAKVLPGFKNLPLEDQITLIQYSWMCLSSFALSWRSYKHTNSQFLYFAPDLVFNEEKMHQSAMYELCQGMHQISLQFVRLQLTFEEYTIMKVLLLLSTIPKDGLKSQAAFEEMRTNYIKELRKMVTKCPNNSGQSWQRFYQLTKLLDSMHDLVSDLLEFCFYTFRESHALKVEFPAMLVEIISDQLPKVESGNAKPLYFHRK
# MEASUREMENT_DESCRIPTION: Cellular in vitro assay, GAL4-MR chimera luciferase reporter in CHO K1 cells (inhibitory MR activity)
# PROTOCOL_CONDITIONS: antagonism vs aldosterone; CHO K1 GAL4-MR LBD luciferase reporter
Below is a list of entries, each paired with its recorded IC50 value.
PROPERTY_NAME: IC50

[[record]]
compound = "CS(=O)(=O)Cc1cccc2c(C(c3ccc(Cl)cc3)C3CC3C#N)c[nH]c12 (stereo not shown) [Example 276]"
value_measured = "24 nM"

[[record]]
compound = "CS(=O)(=O)Cc1cccc2c(C(c3ccc(Cl)cc3)C3CC3(F)F)c[nH]c12 (single isomer, unassigned) [Example 261-1]"
value_measured = "33 nM"

[[record]]
compound = "CS(=O)(=O)Cc1cccc2c(C(CCC#N)c3ccc(Cl)cc3Cl)c[nH]c12 (stereo not shown) [Example 62]"
value_measured = "60 nM"

[[record]]
compound = "CCC(CCC#N)(c1ccc(Cl)cc1)c1c[nH]c2c(CS(C)(=O)=O)cccc12 (single isomer, unassigned) [Enantiomer 172-1]"
value_measured = "7 nM"

[[record]]
compound = "CCC(CCC#N)(c1ccc(Cl)cc1)c1c[nH]c2c(CSC)cccc12 (stereo not shown) [Example 157]"
value_measured = "18 nM"

[[record]]
compound = "C[S+]([O-])Cc1cccc2c(C(c3ccc(F)cc3)c3ccc(Cl)cc3F)c[nH]c12 (mixture of isomers) [Example 130]"
value_measured = "100 nM"

[[record]]
compound = "CS(=O)(=O)Cc1cccc2c(C(c3ccc(Cl)cc3)C3CC3(F)F)c[nH]c12 (single isomer, unassigned) [Example 261-2]"
value_measured = "28 nM"

